# measurement_target: FGFR3 (V555M) (Homo sapiens (Human), UniProt P22607, V555M)
# Sequence (P22607 23-806 V555M): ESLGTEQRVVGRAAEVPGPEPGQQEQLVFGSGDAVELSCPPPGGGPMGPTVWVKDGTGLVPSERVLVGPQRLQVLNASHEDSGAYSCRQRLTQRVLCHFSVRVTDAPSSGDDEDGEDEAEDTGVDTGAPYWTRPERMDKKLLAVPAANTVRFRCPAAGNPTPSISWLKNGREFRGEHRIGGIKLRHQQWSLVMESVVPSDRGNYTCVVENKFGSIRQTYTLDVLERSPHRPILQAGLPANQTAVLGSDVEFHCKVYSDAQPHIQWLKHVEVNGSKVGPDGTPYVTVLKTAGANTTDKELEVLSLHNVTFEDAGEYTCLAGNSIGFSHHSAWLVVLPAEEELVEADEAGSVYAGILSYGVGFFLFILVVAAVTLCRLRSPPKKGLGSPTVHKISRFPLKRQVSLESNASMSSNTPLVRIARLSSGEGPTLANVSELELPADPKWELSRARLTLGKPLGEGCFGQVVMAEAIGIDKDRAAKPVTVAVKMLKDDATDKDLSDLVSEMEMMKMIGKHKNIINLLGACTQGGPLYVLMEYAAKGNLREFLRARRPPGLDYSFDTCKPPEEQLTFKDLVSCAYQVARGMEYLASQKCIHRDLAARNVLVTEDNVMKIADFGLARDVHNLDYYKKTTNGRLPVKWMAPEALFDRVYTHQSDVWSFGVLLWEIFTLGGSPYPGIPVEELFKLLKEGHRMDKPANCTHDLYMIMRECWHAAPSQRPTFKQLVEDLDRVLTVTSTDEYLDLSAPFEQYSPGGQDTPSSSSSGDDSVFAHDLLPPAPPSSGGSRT
# assay_remarks: Kinase assay, binding constants (Kd), kinase-tagged T7 phage, qPCR
# condition_parameters: V555M mutant
Entries annotated with measured Kd
value_type: Kd

Cc1cnnc(C)c1[C@@H](C)Oc1ccc2[nH]nc(-c3cnc(N4CCN5C(=O)NCC5C4)c(C#N)c3)c2c1 (some centres unmarked) :: 1 to 20 nM
COc1cc2[nH]nc(-c3cnc(N4CCCC4)c(C#N)c3)c2cc1O[C@H](C)c1c(Cl)cncc1Cl :: 1 to 20 nM
C[C@@H](Oc1ccc2[nH]nc(-c3cnn([C@H]4CCNC4)c3)c2c1)c1c(Cl)cncc1Cl :: 1 to 20 nM
C[C@@H](Oc1ccc2[nH]nc(-c3cnc(N4CCC4)c(C#N)c3)c2c1)c1c(Cl)cnnc1Cl :: 100 to 300 nM
COC(=O)N1CCCC2(C1)CN(c1ccc(-c3n[nH]c4ccc(O[C@H](C)c5c(C)cnnc5C)cc34)cn1)C2 :: 1 to 20 nM
C[C@@H](Oc1ccc2[nH]nc(-c3cnc(N4CCC5(CC4)C(=O)NCCN5C)c(F)c3)c2c1)c1c(Cl)cncc1Cl :: 1 to 20 nM
Cc1ncc(Cl)c([C@@H](C)Oc2ccc3[nH]nc(-c4cnn(C5CCS(=O)(=O)CC5)c4)c3c2)c1Cl :: 1 to 20 nM
C[C@@H](Oc1ccc2[nH]nc(-c3cnc(N4CC5(CCNC5)C4)nc3)c2c1)c1c(Cl)cncc1Cl :: 1 to 20 nM
C[C@@H](Oc1ccc2[nH]nc(-c3cnc(N4CC[C@@H](O)C4)c(C#N)c3)c2c1)c1c(Cl)cnc(F)c1Cl :: 20 to 100 nM
COc1cc2[nH]nc(-c3cnc(N4CC(O)C4)c(C#N)c3)c2cc1O[C@H](C)c1c(Cl)cncc1Cl :: 1 to 20 nM
C[C@@H](Oc1ccc2[nH]nc(-c3cnc(N4CC(C(F)F)C4)c(C#N)c3)c2c1)c1c(Cl)cncc1Cl :: 20 to 100 nM
C[C@@H](Oc1ccc2[nH]nc(-c3ccc(N4CCC5(CCCO5)CC4)nc3)c2c1)c1c(Cl)cncc1Cl :: 1 to 20 nM
C[C@@H](Oc1ccc2[nH]nc(-c3cnc(N4CC(F)(F)C4)c(C#N)c3)c2c1)c1c(Cl)cncc1Cl :: 20 to 100 nM
CCOC(=O)N1CCC2(CC1)CN(c1ccc(-c3n[nH]c4ccc(O[C@H](C)c5c(Cl)cncc5Cl)cc34)cn1)C2 :: 1 to 20 nM

====

# measurement_target: FGFR4 (Homo sapiens (Human))
# Sequence (P22455 22-802): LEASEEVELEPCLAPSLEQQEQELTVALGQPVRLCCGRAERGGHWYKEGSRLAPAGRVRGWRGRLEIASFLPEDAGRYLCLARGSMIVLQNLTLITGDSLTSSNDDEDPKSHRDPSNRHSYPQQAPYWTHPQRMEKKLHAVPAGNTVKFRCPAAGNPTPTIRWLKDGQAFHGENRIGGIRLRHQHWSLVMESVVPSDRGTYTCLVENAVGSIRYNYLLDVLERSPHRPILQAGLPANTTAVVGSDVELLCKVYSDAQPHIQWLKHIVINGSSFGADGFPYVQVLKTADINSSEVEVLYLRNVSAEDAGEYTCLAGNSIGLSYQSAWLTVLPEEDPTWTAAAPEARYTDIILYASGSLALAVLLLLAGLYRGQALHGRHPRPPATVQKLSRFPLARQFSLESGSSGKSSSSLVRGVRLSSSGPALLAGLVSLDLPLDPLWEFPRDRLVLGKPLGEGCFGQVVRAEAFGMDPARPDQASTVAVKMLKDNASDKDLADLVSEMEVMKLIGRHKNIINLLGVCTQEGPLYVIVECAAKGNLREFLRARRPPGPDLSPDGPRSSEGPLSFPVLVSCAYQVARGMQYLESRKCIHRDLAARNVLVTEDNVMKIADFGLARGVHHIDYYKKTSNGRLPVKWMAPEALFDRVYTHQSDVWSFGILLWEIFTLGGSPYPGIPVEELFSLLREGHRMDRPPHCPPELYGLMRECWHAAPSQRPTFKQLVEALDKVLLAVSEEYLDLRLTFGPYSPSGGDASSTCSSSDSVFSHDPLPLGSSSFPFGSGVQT
# assay_remarks: Kinase assay, binding constants (Kd), kinase-tagged T7 phage, qPCR
value_type: Kd

CCOC(=O)N1CCC2(CC1)CN(c1ccc(-c3n[nH]c4ccc(O[C@H](C)c5c(Cl)cncc5Cl)cc34)cn1)C2 :: 1 to 20 nM
Cc1cc2[nH]nc(-c3cnc(N4CC5(C4)CN(S(C)(=O)=O)C5)c(F)c3)c2cc1O[C@@H](C)c1c(Cl)cnnc1Cl :: > 300 nM
COc1cc(-c2n[nH]c3ccc(O[C@H](C)c4c(Cl)cncc4Cl)cc23)cnc1N1CCOCC1 :: 20 to 100 nM
Cc1cnnc(C)c1[C@@H](C)Oc1ccc2[nH]nc(-c3cnc(N4CCC5(CC4)CCS(=O)(=O)C5)nc3)c2c1 :: 1 to 20 nM
C[C@@H](Oc1ccc2[nH]nc(-c3cnc(N4CCC4CN(C)C)c(C#N)c3)c2c1)c1c(Cl)cncc1Cl (stereo partly shown) :: > 300 nM
C[C@@H](Oc1ccc2[nH]nc(-c3cnc(N4CCC5(CC4)CNC(=O)N5)nc3)c2c1)c1c(Cl)cncc1Cl :: 1 to 20 nM
COc1cc2[nH]nc(-c3ccc(N4CC5(COC5)C4)nc3)c2cc1O[C@H](C)c1c(C)cnnc1C :: 1 to 20 nM
C[C@@H](Oc1ccc2[nH]nc(-c3ccc(N4CC5(CCS(=O)(=O)C5)C4)nc3)c2c1)c1c(Cl)cncc1Cl :: 1 to 20 nM
C[C@@H](Oc1cc2c(-c3cnc(N4CC(C)(C)C4)c(C#N)c3)n[nH]c2cc1Cl)c1c(Cl)cncc1Cl :: 20 to 100 nM
C[C@H](Oc1ccc2[nH]nc(-c3ccc(N4CC5(C4)CN(S(C)(=O)=O)C5)nc3)c2c1)c1c(Cl)cncc1Cl :: 100 to 300 nM
C[C@@H](Oc1ccc2[nH]nc(-c3ccc(N4CCC5(CCNC5=O)CC4)nc3)c2c1)c1c(Cl)cncc1Cl :: 1 to 20 nM
C[C@@H](Oc1cc2c(-c3cnc(N4CCC4)c(CN(C)C)c3)n[nH]c2cc1Cl)c1c(Cl)cncc1Cl :: 1 to 20 nM
Cc1cnnc(C)c1[C@@H](C)Oc1ccc2[nH]nc(-c3cnc(N4CC[C@@H](O)C4)c(C#N)c3)c2c1 :: 1 to 20 nM
COc1cc2[nH]nc(-c3cnc(N4CC5CC(C4)N5)c(C)c3)c2cc1O[C@H](C)c1c(C)cnnc1C :: 1 to 20 nM
C[C@@H](Oc1ccc2[nH]nc(-c3cnc(N4CCCN(S(C)(=O)=O)CC4)nc3)c2c1)c1c(Cl)cncc1Cl :: 1 to 20 nM
Cc1ncc(Cl)c([C@@H](C)Oc2ccc3[nH]nc(-c4ccc(N5CCC[C@H]5CO)nc4)c3c2)c1Cl :: 1 to 20 nM
COC(=O)N1CC2(C1)CN(c1ncc(-c3n[nH]c4ccc(O[C@H](C)c5c(C)cnnc5C)cc34)cn1)C2 :: 1 to 20 nM
C[C@@H](Oc1ccc2[nH]nc(-c3cnc(N4CCC(C(C)(C)O)CC4)c(C#N)c3)c2c1)c1c(Cl)cncc1Cl :: 1 to 20 nM
Cc1ncc(Cl)c([C@@H](C)Oc2ccc3[nH]nc(-c4cnc(N5CC(O)C5)c(C#N)c4)c3c2)c1Cl :: 1 to 20 nM
CCS(=O)(=O)N1CC2(CN(c3ncc(-c4n[nH]c5ccc(O[C@H](C)c6c(Cl)cncc6Cl)cc45)cn3)C2)C1 :: 1 to 20 nM
C[C@@H](Oc1ccc2[nH]nc(-c3cnn(C4CCNCC4)c3)c2c1)c1cc(F)cc(F)c1 :: > 300 nM
C[C@@H](Oc1ccc2[nH]nc(-c3ccc(N4CC5(C4)CN(S(C)(=O)=O)C5)nc3)c2c1)c1c(Cl)cnnc1Cl [Example 246] :: 1 to 20 nM
Cc1ncc(Cl)c([C@@H](C)Oc2ccc3[nH]nc(-c4ccc(N5CCN6C(=O)CCC6C5)nc4)c3c2)c1Cl (stereo partly shown) :: 1 to 20 nM
C[C@@H](Oc1cc2c(-c3ccc(N4CC5(C4)CN(S(C)(=O)=O)C5)nc3)n[nH]c2cc1F)c1c(Cl)cnnc1Cl :: 1 to 20 nM
COC(=O)N1CC2(C1)CN(c1ccc(-c3n[nH]c4ccc(O[C@H](C)c5c(C)cnnc5C)cc34)cn1)C2 :: 1 to 20 nM
C[C@@H](Oc1ccc2[nH]nc(-c3cnc(N4CCC5(CC4)C(=O)NCCN5C)nc3)c2c1)c1c(Cl)cncc1Cl :: 1 to 20 nM
C[C@H](Oc1ccc2[nH]nc(-c3cnc(N4CCC4)c(C#N)c3)c2c1)c1c(Cl)cnc(F)c1Cl :: > 300 nM
C[C@@H](Oc1ccc2[nH]nc(-c3cnc(N4CC[C@H](O)C4)c(C#N)c3)c2c1)c1c(Cl)cnc(F)c1Cl :: 1 to 20 nM
